Listing of entries alongside the reported Number of TLC spots.
assay: Stability in acidic and basic conditions (TLC); assay type: physicochemical; details: basic conditions, 10 min; 1 = stable
# output: bare number, no unit

Recorded Number of TLC spots, per entry:
[
  {
    "CHEMICAL_STRING": "O=C1NC(N2CCC(N3CCOCC3)CC2)=N/C1=C\\c1cccc(Oc2ccccc2)c1",
    "ENDPOINT_LABEL": "Number of TLC spots",
    "TEST_RESULT": 2
  },
  {
    "CHEMICAL_STRING": "O=C1NC(N2CCC(N3CCOCC3)CC2)=N/C1=C\\c1ccc(Oc2ccccc2)cc1",
    "ENDPOINT_LABEL": "Number of TLC spots",
    "TEST_RESULT": 1
  }
]

Measured Number of TLC spots of NC1=N/C(=C\c2ccc(-c3ccccc3)cc2)C(=O)N1CCCN1CCOCC1 : 1

Measured Number of TLC spots of Cl.O=C1N=C(N2CCC(N3CCOCC3)CC2)N/C1=C\c1cccc2ccccc12 : 1

Measured Number of TLC spots of NC1=N/C(=C\c2ccc3c(c2)Cc2ccccc2-3)C(=O)N1CCCN1CCOCC1 : 4

* * *

target: CYP3A4 (Homo sapiens, UniProt P08684); test: in vitro; settings: human
Sequence (P08684 whole entry): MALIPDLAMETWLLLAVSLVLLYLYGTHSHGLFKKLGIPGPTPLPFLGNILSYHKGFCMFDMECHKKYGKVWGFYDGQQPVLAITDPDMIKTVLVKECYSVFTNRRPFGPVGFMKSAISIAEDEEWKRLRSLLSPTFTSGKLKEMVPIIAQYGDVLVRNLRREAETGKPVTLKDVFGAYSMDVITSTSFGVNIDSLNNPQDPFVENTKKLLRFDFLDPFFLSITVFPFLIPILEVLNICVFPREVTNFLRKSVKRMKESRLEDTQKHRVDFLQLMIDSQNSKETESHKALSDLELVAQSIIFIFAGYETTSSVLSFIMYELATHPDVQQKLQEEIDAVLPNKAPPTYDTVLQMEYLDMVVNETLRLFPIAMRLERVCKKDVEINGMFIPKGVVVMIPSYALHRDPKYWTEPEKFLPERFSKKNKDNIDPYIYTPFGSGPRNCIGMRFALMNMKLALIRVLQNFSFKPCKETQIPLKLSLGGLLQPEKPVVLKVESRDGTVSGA
ENDPOINT_LABEL: inhibition at 25 µM

Measured inhibition at 25 µM of NC1=N/C(=C\c2ccc(-c3ccccc3)cc2)C(=O)N1CCCN1CCOCC1 [Compound 15] : < 50%

* * *

Listing of entries alongside the reported Number of TLC spots.
assay: Stability in acidic and basic conditions (TLC); format: physicochemical; details: basic conditions, 2 h; 1 = stable

Measured Number of TLC spots of O=C1NC(N2CCC(N3CCOCC3)CC2)=N/C1=C\c1cccc(Oc2ccccc2)c1 : 2

Measured Number of TLC spots of Cl.O=C1N=C(N2CCC(N3CCOCC3)CC2)N/C1=C\c1cccc2ccccc12 : 2

* * *

Assay: Stability in acidic and basic conditions (TLC)
Assay type: physicochemical
Settings: acidic conditions, 24 h; 1 = stable
Protocol: Compounds 9–12, 15, and 19 were also tested for their stability in acidic and basic conditions. This assay was carried out for 48 h and samples were taken at six-time intervals (10 min, 1 h, 2 h, 3 h, 24 h, 48 h). Stability of the compounds was determined using the TLC method. […] In basic conditions, only compounds 10 and 15 were stable for 24 h. […] Stability of chosen compounds (9-12, 15, and 19) were determined using the TLC method. […]
Listing of entries alongside the reported Number of TLC spots.

[
  {
    "COMPOUND": "Cl.O=C1N=C(N2CCC(N3CCOCC3)CC2)N/C1=C\\c1cccc2ccccc12 [Compound 11]",
    "Number of TLC spots": 1
  },
  {
    "COMPOUND": "NC1=N/C(=C\\c2ccc3c(c2)Cc2ccccc2-3)C(=O)N1CCCN1CCOCC1 [Compound 19]",
    "Number of TLC spots": 2
  },
  {
    "COMPOUND": "O=C1NC(N2CCC(N3CCOCC3)CC2)=N/C1=C\\c1ccc(Oc2ccccc2)cc1 [Compound 10]",
    "Number of TLC spots": 1
  },
  {
    "COMPOUND": "NC1=N/C(=C\\c2ccc(-c3ccccc3)cc2)C(=O)N1CCCN1CCOCC1 [Compound 15]",
    "Number of TLC spots": 2
  }
]

Now consider the entry below.
Measured Number of TLC spots of O=C1NC(N2CCC(N3CCOCC3)CC2)=N/C1=C\c1cccc(Oc2ccccc2)c1 [Compound 9] : 2
